All figures here come from patent US10287301B2.

Recorded IC50 for the following molecules
- experimentalTarget: Human Factor D (Homo sapiens (Human), UniProt P00746)
- Sequence (P00746 26-253): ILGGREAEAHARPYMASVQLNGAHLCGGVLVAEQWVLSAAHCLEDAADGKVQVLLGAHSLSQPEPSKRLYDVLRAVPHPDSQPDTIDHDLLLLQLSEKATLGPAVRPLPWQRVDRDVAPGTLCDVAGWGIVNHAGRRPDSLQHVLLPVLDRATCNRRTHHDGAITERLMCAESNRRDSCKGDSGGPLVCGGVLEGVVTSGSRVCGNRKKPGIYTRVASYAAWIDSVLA
- assayNotes: Human Factor D Assay
- Type: biochemical
- conditionParameters: Human Factor D assay of Example 8; Table 2; read-out: IC50

molecule	IC50
COc1cc2c(cc1-c1cnc(C)nc1)c(C(C)=O)cn2CC(=O)N1C[C@H](F)C[C@H]1C(=O)Nc1cccc(-c2ccccc2Cl)c1F [Compound 318]	< 1000 nM
CC(=O)c1nn(CC(=O)N2C[C@H](F)C[C@H]2C(=O)Nc2cccc(-c3c(F)c(F)c(F)c(F)c3F)c2F)c2ccc(-c3cnc(C)nc3)cc12 [Compound 272]	< 1000 nM

Note: attention shifts to another entry.
Could you share which IC50 value was measured for CC(=O)c1nn(CC(=O)N2C[C@H](F)C[C@H]2C(=O)Nc2cccc(-c3ccccc3Cl)c2F)c2ccc(-c3cnc4cc(C)nn4c3)cc12 [Compound 296] ?
< 1000 nM

---

Recorded IC50 for the following molecules
- experimentalTarget: Human Factor D (Homo sapiens (Human))
- assayNotes: Human Factor D Assay
- Assay type: biochemical
- conditionParameters: Human Factor D assay of Example 8; Table 2; read-out: IC50

Example cases with answers are listed next.
molecule	IC50
COCCN(C)CCN1CC(NC(=O)[C@@H]2C[C@@H](F)CN2C(=O)Cn2nc(C(C)=O)c3cc(-c4cnc(C)nc4)ccc32)CC1=O (stereo partly drawn)	> 10000 nM
CC(=O)c1nn(CC(=O)N2C[C@H](F)C[C@H]2C(=O)Nc2cccc(Br)n2)c2ccc(N3CCn4c(nnc4C(F)(F)F)C3)cc12	< 1000 nM

Note: attention shifts to another entry.
Could you share which IC50 value was measured for CC(=O)c1nn(CC(=O)N2C[C@H](F)C[C@H]2C(=O)Nc2cccc(Br)n2)c2ccc(-c3cnc(N)nc3)cc12 ?
< 1000 nM

---

Recorded pIC50 for the following molecules
- experimentalTarget: UniProt:P00746
- assayNotes: Human Factor D Assay
- Type: biochemical
- conditionParameters: read-out: IC50 (Stars)
pIC50: −log10 of the molar value.

molecule	observed
Cc1ncc(-c2ccc3c(c2)c(C(C)O)nn3CC(=O)N2C[C@H](F)C[C@H]2C(=O)Nc2cccc(Br)n2)cn1 (some centres unmarked) [Compound 376]	5.00 to 6.00

Could you share which pIC50 value was measured for Cc1ncc(-c2ccc3c(c2)c(C(C)O)nn3CC(=O)N2C[C@H](F)C[C@H]2C(=O)Nc2cccc(Br)n2)cn1 (some centres unmarked) [Compound 361] ?
5.00 to 6.00

---

- experimentalTarget: Human Factor D (Homo sapiens (Human), UniProt P00746)
- assayNotes: Human Factor D Assay
- Type: biochemical
Recorded IC50 for the following compounds

Example cases with answers are listed next.
compound	IC50
CC(=O)c1nn(CC(=O)N2C[C@H](F)C[C@H]2C(=O)NC2CCN(C(=O)c3cn[nH]c3)CC2)c2ccc(-c3cnc(C)nc3)cc12 [Compound 261]	1 to 10 µM
NC(=O)c1nn(CC(=O)N2C[C@H](F)C[C@H]2C(=O)Nc2cccnc2)c2ccc(-c3ccnnc3)cc12 [Compound 47]	> 10 µM
CC(=O)c1cn(CC(=O)N2C[C@H](F)C[C@H]2C(=O)NC2CCCN(c3cnn(C)c3)C2)c2ccc(-c3ccnnc3)cc12 (stereo partly shown) [Compound 140]	1 to 10 µM

Note: attention shifts to another entry.
Could you share which IC50 value was measured for CC(=O)c1nn(CC(=O)N2C[C@H](F)C[C@H]2C(=O)Nc2cccc(Br)[n+]2[O-])c2ccc(-c3cnc(C)[n+]([O-])c3)cc12 [Compound 744] ?
1 to 10 µM
